Target: murine TREX1 (Mus musculus (Mouse))
Sequence (Q91XB0 1-242): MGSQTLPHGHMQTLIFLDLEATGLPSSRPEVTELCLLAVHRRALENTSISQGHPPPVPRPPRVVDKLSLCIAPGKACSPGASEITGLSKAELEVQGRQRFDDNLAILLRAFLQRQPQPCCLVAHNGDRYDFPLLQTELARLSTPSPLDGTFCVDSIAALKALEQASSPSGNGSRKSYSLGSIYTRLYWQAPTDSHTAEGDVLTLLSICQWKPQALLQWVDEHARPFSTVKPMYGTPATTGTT
Assay: TREX1 Exonuclease Assay (murine enzyme)
Type: biochemical
Details: murine TREX1 1 nM, FAM/BHQ1-labeled DNA oligonucleotide
Counter-ions that a name gives are not always drawn.
RESULT_TYPE: IC50

[ask] Name the recorded IC50 of the compound listed here: CC(C)C[C@H](C(=O)NCc1cscn1)N1CCC(CCc2ccccc2)N2C[C@H](N)C[C@H]2C1=O (stereo partly shown)
[reply] 10 to 100 µM

[ask] Name the recorded IC50 of the compound listed here: CC(C)C[C@H](C(=O)NS(=O)(=O)c1ccccc1)N1CCC(CCc2ccccc2)N2C[C@H](N)C[C@H]2C1=O (stereo partly shown)
[reply] 1 to 9.99 µM

[ask] Name the recorded IC50 of the compound listed here: CC(C)C[C@H](C(=O)NCc1ccc(Cl)c(Cl)c1)N1CCC(CCc2ccccc2)N2C[C@H](N(C)C)C[C@H]2C1=O (stereo partly shown) [Example 21, HCl]
[reply] > 100 µM

[ask] Name the recorded IC50 of the compound listed here: CC(C)C[C@H](C(=O)NCc1ccc(Cl)cc1Cl)N1CCC(CCc2ccccc2)N2C[C@H](N)C[C@H]2C1=O (stereo partly shown)
[reply] 1 to 9.99 µM

[ask] Name the recorded IC50 of the compound listed here: CC(C)C[C@H](C(=O)N[C@@H](C)c1ccccc1)N1CCC(CCc2ccccc2)N2C[C@H](N)C[C@H]2C1=O (stereo partly shown)
[reply] 10 to 100 µM

[ask] Name the recorded IC50 of the compound listed here: CC(C)C[C@H](C(=O)NCc1ccc(Cl)c(Cl)c1)N1CCC(CCc2ccccc2)N(CCN)CC1=O (stereo partly shown)
[reply] 10 to 100 µM

[ask] Name the recorded IC50 of the compound listed here: N[C@@H]1C[C@H]2C(=O)N([C@H](CCC(=O)O)C(=O)NCc3ccc(Cl)c(Cl)c3)CCC(CCc3ccccc3)N2C1 (stereo partly shown) [Example 14B]
[reply] < 1 µM
